Data origin, for the record: ChEMBL document CHEMBL1137057

- studySystem: Neuronal acetylcholine receptor subunit alpha-7 (Rattus norvegicus, UniProt Q05941)
- Sequence (Q05941 whole entry): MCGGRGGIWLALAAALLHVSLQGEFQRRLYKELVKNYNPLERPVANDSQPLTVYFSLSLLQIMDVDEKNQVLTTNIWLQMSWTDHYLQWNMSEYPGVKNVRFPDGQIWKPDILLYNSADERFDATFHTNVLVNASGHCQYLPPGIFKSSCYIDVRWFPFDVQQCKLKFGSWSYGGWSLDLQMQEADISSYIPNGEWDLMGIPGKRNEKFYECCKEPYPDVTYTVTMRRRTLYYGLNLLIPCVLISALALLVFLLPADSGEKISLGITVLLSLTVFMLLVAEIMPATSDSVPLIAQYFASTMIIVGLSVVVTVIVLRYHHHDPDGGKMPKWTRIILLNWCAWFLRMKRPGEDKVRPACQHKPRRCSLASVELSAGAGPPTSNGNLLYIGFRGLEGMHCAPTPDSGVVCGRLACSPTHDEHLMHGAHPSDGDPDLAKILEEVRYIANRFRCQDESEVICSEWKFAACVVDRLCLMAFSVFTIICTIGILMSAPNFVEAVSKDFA
- measurementNotes: Inhibition of [3H]-BTX binding to Nicotinic acetylcholine receptor alpha-7 of rat hippocampal membranes
endpointName: Ki (nM)

Clc1ccc([C@@H]2CC3CC2CN3)cn1 (some centres undefined)	6.3
Clc1ccc(C2CC3CNC2C3)cn1 (centres undefined)	1600
Clc1ccc(C2CC3CC2CN3)cn1 (centres undefined)	3300
Clc1ccc([C@@H]2CC3CNC2C3)cn1 (some centres undefined)	3.9

* * *

- studySystem: Neuronal acetylcholine receptor; alpha4/beta2 (Rattus norvegicus, UniProt P09483+P12390)
- Sequence (P09483 whole entry): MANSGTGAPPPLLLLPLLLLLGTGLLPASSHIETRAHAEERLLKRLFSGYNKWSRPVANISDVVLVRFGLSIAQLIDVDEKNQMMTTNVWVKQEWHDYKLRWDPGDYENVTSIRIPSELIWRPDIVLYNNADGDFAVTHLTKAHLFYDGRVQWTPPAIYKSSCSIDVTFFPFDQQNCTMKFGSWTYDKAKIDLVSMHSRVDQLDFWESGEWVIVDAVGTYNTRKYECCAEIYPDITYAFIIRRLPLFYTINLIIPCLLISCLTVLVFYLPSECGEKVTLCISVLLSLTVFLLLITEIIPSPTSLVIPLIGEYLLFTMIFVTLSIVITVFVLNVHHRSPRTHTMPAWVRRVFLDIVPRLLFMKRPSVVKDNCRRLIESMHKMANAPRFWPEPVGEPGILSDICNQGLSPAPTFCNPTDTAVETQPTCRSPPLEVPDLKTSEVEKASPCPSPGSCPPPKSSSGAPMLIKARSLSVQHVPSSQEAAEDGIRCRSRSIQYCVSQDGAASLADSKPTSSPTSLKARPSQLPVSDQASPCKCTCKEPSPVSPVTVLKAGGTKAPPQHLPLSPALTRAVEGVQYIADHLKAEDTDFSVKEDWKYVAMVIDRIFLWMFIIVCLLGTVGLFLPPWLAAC
- Sequence (P12390 whole entry): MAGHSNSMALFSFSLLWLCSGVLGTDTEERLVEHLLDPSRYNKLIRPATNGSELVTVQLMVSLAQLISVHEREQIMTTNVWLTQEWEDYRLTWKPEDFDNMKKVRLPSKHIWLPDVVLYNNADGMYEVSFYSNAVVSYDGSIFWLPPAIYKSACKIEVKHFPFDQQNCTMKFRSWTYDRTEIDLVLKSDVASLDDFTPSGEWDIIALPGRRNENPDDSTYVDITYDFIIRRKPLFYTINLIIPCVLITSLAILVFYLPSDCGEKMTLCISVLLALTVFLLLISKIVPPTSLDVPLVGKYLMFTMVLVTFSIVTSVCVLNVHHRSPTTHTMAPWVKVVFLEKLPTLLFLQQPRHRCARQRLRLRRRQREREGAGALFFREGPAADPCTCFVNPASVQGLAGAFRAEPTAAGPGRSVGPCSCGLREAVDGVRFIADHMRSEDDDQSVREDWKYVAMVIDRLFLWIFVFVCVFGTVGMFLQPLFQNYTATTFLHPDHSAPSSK
- measurementNotes: Inhibition of [3H]epibatidine binding to Nicotinic acetylcholine receptor alpha4-beta2 of rat cortical membranes
- Assay type: cell membranes, Membrane
endpointName: Ki (nM)

Clc1ccc(C2CCC3CCC2N3)cn1 (stereo unspecified)	1.6

* * *

- studySystem: Neuronal acetylcholine receptor; alpha4/beta2 (Rattus norvegicus, UniProt P09483+P12390)
- measurementNotes: Inhibition of [3H]nicotine binding to Nicotinic acetylcholine receptor alpha4-beta2 of rat cortical membranes
- Format: cell membranes, Membrane
Hi! Just check whether Ki is below 0.1 nM. Below gives t, equal or above gives f.

Clc1ccc(C2CC3CCCCC2N3)cn1 (stereo in doubt; 17)	f
Clc1ccc(C2CC3CCCCC2N3)cn1 (single isomer, unassigned; (-))	f
Clc1ccc(C2CC3CNC2C3)cn1 (configuration not stated)	f
Clc1ccc([C@@H]2CC3CC2CN3)cn1 (some centres not stated)	t
Clc1ccc(C2CC3CCCCC2N3)cn1 (stereo in doubt; 16 (+))	f
Clc1ccc([C@@H]2CC3CNC2C3)cn1 (some centres not stated)	t
Clc1ccc(C2CC3CC2CN3)cn1 (configuration not stated)	f

* * *

- studySystem: Neuronal acetylcholine receptor; alpha4/beta2 (Rattus norvegicus, UniProt P09483+P12390)
- measurementNotes: Inhibition of [3H]cytisine binding to Nicotinic acetylcholine receptor alpha4-beta2 of rat cortical membranes
- Type: cell membranes, Membrane
pKi: −log10 of the molar value.
endpointName: pKi

Clc1ccc(C2CC3CC2CN3)cn1 (stereo unspecified)	7.52
Clc1ccc(C2CC3NCC32)cn1 (stereo unspecified)	8.30
Clc1ccc(C2CC3CCC2NC3)cn1 (stereo unspecified)	9.33
Clc1ccc(C2CC3CNC2C3)cn1 (stereo unspecified)	8.18
Clc1ccc(C2CC3CNC32)cn1 (stereo unspecified)	8.41
Clc1ccc([C@@H]2CC3CNC2C3)cn1 (stereo partly specified)	10.52
